biological target: TDO2 (Homo sapiens); construct: decreased levels of NFK in SW48 cells (high TDO expressing cells); assay: TDO2 cell assay (NFK GreenScreen, SW48 cells); type: cell-based; settings: SW48 cells (high TDO expressing), 200 uM tryptophan, 24 hours; Table 3; read-out: TDO2 Cell Fluor EC50

| compound | censoring qualifier | EC50 [µM] |
| --- | --- | --- |
| OC1CC2(CC2)C1C1c2ccccc2-c2cncn21 (single isomer, unassigned) [Example 72c] | = | 10 |
| OC1CCOCC1C1c2c(Cl)cccc2-c2cncn21 (single isomer, unassigned) [Example 69a] | > | 25 |
| CC(C)(C(N)=O)[C@@H](O)[C@H]1c2ccccc2-c2cncn21 [Example 155a] | = | 0.33 |
| N#Cc1cnc2c(c1)CCC(C1c3ccccc3-c3cncn31)C2O (single isomer, unassigned) [Example 107f] | = | 0.42 |
| N#Cc1ccc2c(c1)[C@@H](O)[C@@H]([C@H]1c3ccccc3-c3cncn31)CC2 (stereo in doubt) [Example 113d] | = | 12 |
| O=S1(=O)CC(O)C(C2c3ccccc3-c3cncn32)C1 (single isomer, unassigned) [Example 38c] | = | 22 |
| OCC(O)C1c2ccccc2-c2cncn21 (single isomer, unassigned) [Example 49a] | = | 18 |

---

target: TDO2 (Homo sapiens, UniProt P48775); construct: decreased levels of NFK in SW48 cells (high TDO expressing cells); assay: TDO2 cell assay (NFK GreenScreen, SW48 cells); assay type: cell-based; settings: SW48 cells (high TDO expressing), 200 uM tryptophan, 24 hours; Table 3; read-out: TDO2 Cell Fluor EC50
Sequence (P48775 whole entry): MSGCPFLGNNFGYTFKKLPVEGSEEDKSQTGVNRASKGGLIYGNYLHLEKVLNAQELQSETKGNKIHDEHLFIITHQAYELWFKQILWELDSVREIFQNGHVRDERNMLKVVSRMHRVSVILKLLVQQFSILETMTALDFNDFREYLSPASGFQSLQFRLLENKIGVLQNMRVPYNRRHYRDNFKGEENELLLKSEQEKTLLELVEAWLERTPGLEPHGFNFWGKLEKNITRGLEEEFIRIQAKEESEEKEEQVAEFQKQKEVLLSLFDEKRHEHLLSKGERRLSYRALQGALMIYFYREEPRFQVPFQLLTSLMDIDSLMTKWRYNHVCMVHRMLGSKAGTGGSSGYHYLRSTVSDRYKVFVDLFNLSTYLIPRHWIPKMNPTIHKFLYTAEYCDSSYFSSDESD

| compound | unit label | EC50 |
| --- | --- | --- |
| N#Cc1cc2n(n1)CCC(C1c3ccccc3-c3cncn31)C2O (single isomer, unassigned) [Example 174b] | nM | 150 |
| OC1COCC1C1c2ccc(F)cc2-c2cncn21 (single isomer, unassigned) [Example 30c] | nM | 2100 |
| O=S1(=O)CC(O)C(C2c3ccccc3-c3cncn32)C1 (single isomer, unassigned) [Example 38d] | nM | 3800 |
| NS(=O)(=O)N1CCC(O)C(C2c3ccccc3-c3cncn32)CC1 (single isomer, unassigned) [Example 101d] | nM | 770 |
| OC1CC2(CCC2)C1C1c2ccccc2-c2cncn21 (single isomer, unassigned) [Example 67g] | nM | 2400 |
| Cn1cc2c(n1)C(O)C(C1c3ccccc3-c3cncn31)CC2 (single isomer, unassigned) [Example 139-1a] | nM | 5300 |
| NS(=O)(=O)c1ccc2c(c1)CCC(C1c3ccccc3-c3cncn31)C2O (single isomer, unassigned) [Example 100b] | nM | 1300 |
| OC1c2ccccc2CC1C1c2ccccc2-c2cncn21 (single isomer, unassigned) [Example 19c] | nM | 180 |
| OC1CC2(CCC2)C1C1c2ccccc2-c2cncn21 (single isomer, unassigned) [Example 67f] | nM | 46 |
| OC1c2nccn2CCC1C1c2ccccc2-c2cncn21 (single isomer, unassigned) [Example 88g] | nM | 730 |
| OC1(C2c3ccccc3-c3cncn32)COC1 (racemic) [Example 48] | nM | 7260 |
| CC1(C)CC(O)(C2c3ccccc3-c3cncn32)C1 (racemic) [Example 147a] | nM | 810 |
| N#Cc1cnc2c(c1)CC[C@H]([C@@H]1c3ccccc3-c3cncn31)[C@H]2O (single isomer, unassigned) [Example 107h] | nM | 160 |
| CN(C)C(=O)c1ccc2c(c1)CCC(C1c3ccccc3-c3cncn31)C2O (single isomer, unassigned) [Example 98b] | nM | 8700 |
| CC(C)(C)OC(=O)N1CCCC(O)(C2c3ccccc3-c3cncn32)C1 (single isomer, unassigned) [Example 127b] | nM | 890 |

---

target: TDO2 (Homo sapiens, UniProt P48775); construct: decreased levels of NFK in SW48 cells (high TDO expressing cells); experiment: TDO2 cell assay (NFK GreenScreen, SW48 cells); type: cell-based; settings: SW48 cells (high TDO expressing), 200 uM tryptophan, 24 hours; Table 3; read-out: TDO2 Cell Fluor EC50
pEC50: −log10 of the molar value.
Respond with label 1 for pEC50 values of 5 and above, label 0 for values below.

| compound | system under test | category label |
| --- | --- | --- |
| OCC(O)C1c2ccccc2-c2cncn21 (single isomer, unassigned) [Example 49d] | TDO2 (Homo sapiens, UniProt P48775) | label 1 |
| OC1c2cccn2CCC1C1c2ccccc2-c2cncn21 (single isomer, unassigned) [Example 136d] | TDO2 (Homo sapiens, UniProt P48775) | label 0 |
| OC1c2nonc2CCC1C1c2ccccc2-c2cncn21 (single isomer, unassigned) [Example 163d] | TDO2 (Homo sapiens, UniProt P48775) | label 1 |
| Nc1cc2n(n1)CCC(C1c3ccccc3-c3cncn31)C2O (single isomer, unassigned) [Example 161e] | TDO2 (Homo sapiens, UniProt P48775) | label 0 |
| OC1COCCC1C1c2ccc(F)cc2-c2cncn21 (single isomer, unassigned) [Example 33d] | TDO2 (Homo sapiens, UniProt P48775) | label 0 |
| OC1c2ccccc2CC1C1c2ccccc2-c2cncn21 (single isomer, unassigned) [Example 19d] | TDO2 (Homo sapiens, UniProt P48775) | label 1 |
| OC1C(C2c3ccccc3-c3cncn32)CCC12CCOCC2 (single isomer, unassigned) [Example 68h] | TDO2 (Homo sapiens, UniProt P48775) | label 0 |
| OC1c2[nH]ncc2CCC1C1c2ccccc2-c2cncn21 (single isomer, unassigned) [Example 157h] | TDO2 (Homo sapiens, UniProt P48775) | label 1 |
| CCS(=O)(=O)N1CCC2(CCC(C3c4ccccc4-c4cncn43)C2O)CC1 (single isomer, unassigned) [Example 76c] | TDO2 (Homo sapiens, UniProt P48775) | label 1 |
| O[C@@H]1c2c(F)cnn2CC[C@@H]1[C@@H]1c2ccccc2-c2cncn21 (single isomer, unassigned) [Example 151b] | TDO2 (Homo sapiens, UniProt P48775) | label 0 |
| O[C@@H]1c2c(Cl)cnn2CC[C@@H]1[C@H]1c2ccccc2-c2cncn21 (single isomer, unassigned) [Example 160c] | TDO2 (Homo sapiens, UniProt P48775) | label 0 |
| N#Cc1cnc2c(c1)CCC(C1c3ccccc3-c3cncn31)C2O (single isomer, unassigned) [Example 107b] | TDO2 (Homo sapiens, UniProt P48775) | label 0 |
| NS(=O)(=O)N1CCC2(CCC(C3c4ccccc4-c4cncn43)C2O)CC1 (single isomer, unassigned) [Example 182c] | TDO2 (Homo sapiens, UniProt P48775) | label 1 |
| Cn1ncc2c1CCC(C1c3ccccc3-c3cncn31)C2O (single isomer, unassigned) [Example 93f] | TDO2 (Homo sapiens, UniProt P48775) | label 1 |
| OC1CCC1C1c2ccccc2-c2cncn21 (single isomer, unassigned) [Example 01h] | TDO2 (Homo sapiens, UniProt P48775) | label 0 |
| CC1(C)CCCC(C)(C2c3ccccc3-c3cncn32)C1O (single isomer, unassigned) [Example 90f] | TDO2 (Homo sapiens, UniProt P48775) | label 1 |
| CC(O)(c1ncc[nH]1)C1c2ccccc2-c2cncn21 (single isomer, unassigned) [Example 143c] | TDO2 (Homo sapiens, UniProt P48775) | label 0 |
| CC(C)C(O)C1c2ccccc2-c2cncn21 (single isomer, unassigned) [Example 51c] | TDO2 (Homo sapiens, UniProt P48775) | label 1 |
| N#Cc1ccc2c(c1)CCC(C1c3ccccc3-c3cncn31)C2O (single isomer, unassigned) [Example 62e] | TDO2 (Homo sapiens, UniProt P48775) | label 1 |
| CS(=O)(=O)N1CCC(O)(C2c3ccccc3-c3cncn32)C1 (single isomer, unassigned) [Example 116d] | TDO2 (Homo sapiens, UniProt P48775) | label 1 |
| OC1c2cncnc2CCC1C1c2ccccc2-c2cncn21 (single isomer, unassigned) [Example 94b] | TDO2 (Homo sapiens, UniProt P48775) | label 1 |
| C[C@H](O)[C@H]1c2ccccc2-c2cncn21 [Example 42c] | TDO2 (Homo sapiens, UniProt P48775) | label 1 |
| OC(C1c2ccccc2-c2cncn21)C1(F)CC1 (single isomer, unassigned) [Example 154a] | TDO2 (Homo sapiens, UniProt P48775) | label 1 |
| N#Cc1cc2n(n1)CCC(C1c3ccccc3-c3cncn31)C2O (single isomer, unassigned) [Example 174a] | TDO2 (Homo sapiens, UniProt P48775) | label 0 |
| OC1CCCCCC1C1c2ccccc2-c2cncn21 (single isomer, unassigned) [Example 115b] | TDO2 (Homo sapiens, UniProt P48775) | label 1 |
| OC1CCCCC1C1c2ccc(F)cc2-c2cncn21 (single isomer, unassigned) [Example 25c] | TDO2 (Homo sapiens, UniProt P48775) | label 0 |
| O[C@@H]1c2ccnn2CC[C@H]1[C@H]1c2ccccc2-c2cncn21 [Example 56a] | TDO2 (Homo sapiens, UniProt P48775) | label 1 |
